# Tested on: Plasmodium falciparum
# test description: Inhibition of Plasmodium falciparum protein farnesyltransferase at 50 nM by scintillation proximity assay
endpoint label: inhibition

- COC(=O)N1CCC(CN(C2Cc3cc(C#N)ccc3N(Cc3cncn3C)C2)S(=O)(=O)c2nccn2C)CC1 (configuration not stated): 96%
- CC(C)OC(=O)N1CCC(CN(C2Cc3cc(C#N)ccc3N(Cc3cncn3C)C2)S(=O)(=O)c2ccccn2)CC1 (configuration not stated): 97%
- Cn1cncc1CN1CC(N(Cc2cccc(C(=O)O)n2)S(=O)(=O)c2ccccn2)Cc2cc(C#N)ccc21 (configuration not stated): 97%
- Cn1cnc(S(=O)(=O)N(CCn2cccc2)C2Cc3cc(C#N)ccc3N(Cc3cncn3C)C2)c1 (configuration not stated): 99%
- CCS(=O)(=O)c1ccc(CN(C2Cc3cc(C#N)ccc3N(Cc3cncn3C)C2)S(=O)(=O)c2cn(C)cn2)cc1 (configuration not stated): 100%
- CC(C)COC(=O)N1CCC(CN(C2Cc3cc(C#N)ccc3N(Cc3cncn3C)C2)S(=O)(=O)c2cn(C)cn2)CC1 (configuration not stated): 98%
- CC(=O)N(Cc1ccccc1F)C1Cc2cc(C#N)ccc2N(Cc2cncn2C)C1 (configuration not stated): 43%
- COC(=O)N1CCC(CN(C2Cc3cc(C#N)ccc3N(Cc3cncn3C)C2)S(=O)(=O)c2cnn(C)c2)CC1 (configuration not stated): 100%
- Cn1cnc(S(=O)(=O)N(Cc2ccc3cccnc3c2)C2Cc3cc(C#N)ccc3N(Cc3cncn3C)C2)c1 (configuration not stated): 99%
- Cc1ccccc1CN(C1Cc2cc(C#N)ccc2N(Cc2cncn2C)C1)S(=O)(=O)c1cn(C)cn1 (configuration not stated): 100%
- Cn1cnc(CN2CC(N(CC(=O)NC(C)(C)C)S(=O)(=O)c3ccccc3)Cc3cc(-c4ccccc4)ccc32)c1 (configuration not stated): 8%
- Cn1cncc1CN1CC(N(CC(=O)NC(C)(C)C)S(=O)(=O)CCN)Cc2cc(C#N)ccc21 (configuration not stated): 11%
- CCN(C1Cc2cc(-c3ccccc3)ccc2N(Cc2cncn2C)C1)S(=O)(=O)c1cn(C)cn1 (configuration not stated): 86%
- CSCCC(=O)N(Cc1ccccc1F)C1Cc2cc(C#N)ccc2N(Cc2cncn2C)C1 (configuration not stated): 52%
- COC(=O)N(C)CCCN(C1Cc2cc(C#N)ccc2N(Cc2cncn2C)C1)S(=O)(=O)c1ccccn1 (configuration not stated): 95%
- Cn1cncc1CN1CC(N(Cc2ccccc2F)C(=O)C2CC2)Cc2cc(C#N)ccc21 (configuration not stated): 33%
- Cn1cnc(S(=O)(=O)N(CCc2ccccc2C(F)(F)F)C2Cc3cc(C#N)ccc3N(Cc3cncn3C)C2)c1 (configuration not stated): 99%

The reported numbers originate from ChEMBL document CHEMBL1148785.
